// provenance: patent US20250340623A1

Here, each record is paired with measured Kd data.
TGT: alpha-synuclein fibrils (UniProt P37840 1-140)
ASSAY INFO: SPR, captured mAb
Expressed in nM, but write only the number.

Sample answers from the record:
The value of Kd measured for the binder ACI-8033-22E5-Ab1 (antibody, V domains shown, mouse hybridoma mAb; VH/VL only; also called 917.22E5C5F7) VH: EVQLVESGGDLVKPGGSLKLSCAASGFTFSSYGMSWVRQTPDKRLEWVATISNGGSYTYYPDSVKGRFTISRDNAKNTLYLQMSSLKSEDTAMYYCARQLRRDGWYFDVWGTGTTVTVSS VL: EIVLTQSPALMAASPGEKVTITCSVSSSISSSKLHWYQQKSETSPKLWIYGTSNLASGVPVRFSGSGSGTSYSLTISSMEAEDAATYYCQQWSSYPLTFGAGTKLELK turned out to be 1.8

Summary for this binder, ACI-8031-6207G10-Ab1 (antibody, V domains shown, mouse hybridoma mAb; VH/VL only; also called 6207G10E6) VH: QVQLQQSGAELVKPGASVKISCKASGYAFSSYWMNWVKQRPGKGLEWIGQIYPGDGDTNYNGKFKGKATLTADRSSSTAYMQLSSLTSEDSAVYFCAITHYDYWGQGTTLTVSS VL: DILLTQSPAILSVSPGDRVSFSCRASQSIGTRIHWYQQRTNGSPRLLIKYASESISGTPSRFSGSGSGTDFTLSINSVESEDIADYYCQQSNSWPLTFGAGTKLELK : Kd is 13.3

# Kd (binder: ACI-8033-21C8-Ab1 (antibody, V domains shown, mouse hybridoma mAb; VH/VL only; also called 917.21C8E4C8) VH: QVQLQQPGAELVKPGASVKMSCKASGYTFTSYWITWVRQRPGQGLDWIGDIYPGGGVTNYNEKFKTKATLTVDTSSSTAYMHLSSLTSEDSAVYFCATAQTTFAYWGQGTLVTVSA VL: DVLMTQTPLSLPVSLGDQASISCRSSQNIVHNNGNTYLEWYLQKPGQSPKLLIYKVSNRFSGVPDRFSGSGSGTDFTLKISRVEAEDLGVYYCFQGSHVPRTFGGGTKLEIK ) is 17.7

Turning now to a further record.
Noted for ACI-8032-6301C8-Ab2 (antibody, V domains shown, mouse hybridoma mAb; VH/VL only; also called 6301C8G12) VH: QVQLQQSGAELARPGTSVKLSCKASGYTFTTYGISWVKQRTGQGLEWIGEIYPRSGNTYYNEKFKGKATLTADKPSSTAYMELRSLTSEDSAVYFCASESYYGDYAWYFDVWGTGTTVTVSS VL: DVLMTQIPLSLPVSLGDQASISCRSSQSIVHSNGNTYLEWHLQKPGQSPKLLIYEVSNRFSGVPDRFSGSGSGTDFTLNISRVEAEDLGVYYCFQGSHVPPTFGGGTKLEIK : its Kd reads 42.8
